- procedure.details: Quantitative highthroughput screen to assess conditional lethalithy of P12 Ichikawa cells grown in RPMI1640 with dialyzed fetal bovine serum (RPMI+ds) (AID 1963880); note: nearly all actives have a fitted effect of over 35% in size
- condition.summary: ATP luminescence, 48 h; P12-Ichikawa viability; series mostly up to 45.8 µM
Records with an inconclusive call do not appear. The source made the active and inactive calls. Calls come from the whole dose curve; as a rule, active = well fitted cell-killing curve with a large enough effect; inconclusive = small, poorly fitted or top-dose-only effect; inactive = flat fitted curve, though single readings scatter. Where a SMILES comes first, the peptide text is derived from it. [ ]: non-standard residue; d: D form. The star is where a group is joined. Sta = CC(C)C[C@H](N)[C@@H](O)CC(=O)O; Isovaleryl = CC(C)CC(=O)*

| compound | outcome |
| --- | --- |
| C[C@H](O)[C@@H]1C(=O)N2C(C(=O)O)=C(S[C@@H]3CN[C@H](CNS(N)(=O)=O)C3)[C@@H](C)[C@@H]12 | inactive |
| COc1c(Cl)cc2c([nH]c3cnccc32)c1NC(=O)c1cccnc1C | inactive |
| CC(C)CC(=O)N[C@H](C(=O)N[C@H](C(=O)N[C@@H](CC(C)C)[C@@H](O)CC(=O)N[C@@H](C)C(=O)N[C@@H](CC(C)C)[C@@H](O)CC(=O)O)C(C)C)C(C)C (Isovaleryl-VV[Sta]A[Sta]-OH) | inactive |
| C[C@@H]1CC=CC=CC=CC=C[C@@H](O[C@@H]2O[C@H](C)[C@@H](O)[C@H](N)[C@H]2O)C[C@@H]2O[C@](O)(C[C@@H](O)C[C@@H]3O[C@@H]3C=CC(=O)O1)C[C@H](O)[C@@H]2C(=O)O | inactive |

###

- procedure.details: Viability qHTS for spleen associated tyrosine kinase inhibitor (SYKi) naive MV4-11 cells (AID 1963823); note: nearly all actives have a fitted effect of over 40% in size
- condition.summary: MV4-11 AML viability, CellTiter-Glo luminescence, 72 h; series mostly up to 45 µM
Results filed as inconclusive are left out. Calls of active or inactive are those of the source. The call rests on the fitted dose curve; in most records, active means well fitted cell-killing curve with a large enough effect; inconclusive means small, poorly fitted or top-dose-only effect, or effect the other way; inactive means no such curve, though single readings can be large or run the other way.
Valid outcomes are listed here; reply with one: active, inactive

| molecule | group |
| --- | --- |
| CCc1cc(S(=O)(=O)O)c2cc(C(C)C)cccc1-2 | inactive |
| CCN(C)C(=O)Oc1cccc([C@H](C)N(C)C)c1 | inactive |
| C/C(=C/CO)CC[C@@H]1[C@@]2(C)CCC[C@](C)(C(=O)O)C2CC[C@@]1(C)O (stereo partly drawn) | inactive |
| CCOC(=O)Cn1cccc1-c1nc(-c2ccc(OC)cc2)c(-c2ccc(OC)cc2)s1 | active |
| COc1ccc(CCN(C)CCCN2CCc3cc(OC)c(OC)cc3CC2=O)cc1OC | inactive |
| C[C@]12CCC[C@](C)(C(=O)O)C1CCC13C=C(CO)C(CCC12)C3 (stereo partly drawn) | inactive |
| O=c1sn(-c2cccc3ccccc23)c(=O)n1Cc1ccccc1 | active |

In the following, a different molecule is considered.
Query :: Given "O=C(c1c2ccccc2cc2ccccc12)N1CCC(N2CCC[C@@H](C(=O)N3CCOCC3)C2)CC1" , state the outcome it received in this test.
Result :: inactive

###

- procedure.details: Viability qHTS for spleen associated tyrosine kinase inhibitor (SYKi) drug resistant MV4-11 cells (AID 1963824); note: nearly all actives have a fitted effect of over 35% in size
- condition.summary: SYKi-resistant MV4-11 viability, CellTiter-Glo, 72 h; series mostly up to 45 µM
Results filed as inconclusive are left out. The source made the active and inactive calls. Calls come from the whole dose curve; as a rule, active = well fitted cell-killing curve with a large enough effect; inconclusive = small, poorly fitted or top-dose-only effect, or effect the other way; inactive = no such curve, though single readings can be large or run the other way.
Valid outcomes are listed here; reply with one: active, inactive

Some solved entries appear below for comparison.
| compound | group |
| --- | --- |
| NC(=O)c1cccc2[nH]c(-c3ccc([C@H]4CCCN4)cc3F)nc12 | active |
| Cc1ccc(C(C)(O)c2nc3ccccc3s2)c(C)c1 (stereo not drawn) | active |
| COc1cc(C(=O)OC[C@@]2(O)CO[C@@H](O[C@H]3[C@H](Oc4ccc(O)cc4)O[C@H](CO)[C@@H](O)[C@@H]3O)[C@@H]2O)cc(OC)c1O | inactive |
| CC(=O)N[C@@H](C(=O)O[C@H]1CCC(C)(C)[C@@H]2CCC3=C(COC3=O)[C@@]12C)C(C)C | inactive |
| O=C1CCC[C@@H]2[C@H]3CCC[N+]4([O-])CCC[C@@H](CN12)[C@@H]34 (stereo partly drawn) | inactive |
| O=C(O)CCc1cc2ccoc2cc1O[C@@H]1O[C@H](CO[C@@H]2OC[C@](O)(CO)[C@H]2O)[C@@H](O)[C@H](O)[C@H]1O | inactive |

Query :: Given CC(C)C[C@H](NC(=O)CNC(=O)c1cc(Cl)ccc1Cl)B1OC(=O)CC(CC(=O)O)(C(=O)O)O1 (stereo partly drawn) , state the outcome it received in this test.
Result :: active

Query :: What would you report for "Nc1nc2c(ncn2COC(CO)CO)c(=O)[nH]1" ?
Result :: inactive

Query :: What would you report for CC1CCC2(NC1)OC1C(=O)C3C4CCC5CC(O[C@@H]6O[C@H](CO)[C@@H](O)[C@H](O)[C@H]6O[C@@H]6O[C@@H](C)[C@H](O)[C@@H](O)[C@H]6O)CCC5(C)C4CCC3(C)C1C2C (stereo partly drawn) ?
Result :: inactive

Query :: What would you report for CC1COC2(OC3CC4C5CC(O[C@@H]6O[C@H](C)[C@@H](O[C@@H]7O[C@@H](C)[C@H](O)[C@@H](O)[C@H]7O)[C@H](O)[C@H]6O)C6CC(O)CCC6(C)C5CCC4(C)C3C2C)C(O)C1 (stereo partly drawn) ?
Result :: inactive

Query :: What would you report for "CCCCCCCCCCCCCC[N+](C)(C)C" ?
Result :: active

Query :: What would you report for "CCCCC(C)(C)[C@H](O)C=C[C@H]1[C@H](O)CC(=O)[C@H]1CC=CCCCC(=O)O" ?
Result :: active

Query :: What would you report for "CNc1cc2c(Nc3cccc(Br)c3)ncnc2cn1" ?
Result :: active
